Test system: CCK2 receptor (gastrin receptor)
Assay overview: cell-based or functional assay
Numbered stars: 1 amine (or outer) side, 2 acyl side, 3 side chain; on linkers, the order of the positions; unused ones are H or OH. Ends that are not written are not given here. * marks the point of attachment. C18 diacid = O=C(O)CCCCCCCCCCCCCCCCC(=O)*; γGlu = O=C(O)[C@H](CCC(=O)[*:2])N[*:1]; AEEA = NCCOCCOCC(=O)O
Outcome: 1 for Relative Receptor Potency of at least 30; -1 for anything lower.

# Binder, Group label
records = [
    ("{C18 diacid-γGlu-AEEA-AEEA}-GWLDF-NH2 (SMILES CC(C)C[C@H](NC(=O)[C@H](Cc1c[nH]c2ccccc12)NC(=O)CNC(=O)COCCOCCNC(=O)COCCOCCNC(=O)CC[C@H](NC(=O)CCCCCCCCCCCCCCCCC(=O)O)C(=O)O)C(=O)N[C@@H](CC(=O)O)C(=O)N[C@@H](Cc1ccccc1)C(N)=O) [N-α-#-[Leu15] Gastrin-17 (13-17)]", -1),
    ("{C18 diacid-γGlu-AEEA-AEEA}-QGPWLEEEEEAYGWLDF-NH2 (ends and bridges not checked) [N-α-#-[Leu15] Gastrin-17]", 1),
    ("{C18 diacid-γGlu-AEEA-AEEA}-WLEEEEEAYGWLDF-NH2 (ends and bridges not checked) [N-α-#-[Leu15] Gastrin-17 (4-17)]", 1),
    ("{C18 diacid-γGlu-AEEA-AEEA}-YGWLDF-NH2 (ends and bridges not checked) [N-α-#-[Leu15] Gastrin-17 (12-17)]", -1),
    ("{C18 diacid-γGlu-AEEA-AEEA}-Leu-Asp-Phe-NH2 (SMILES CC(C)C[C@H](NC(=O)COCCOCCNC(=O)COCCOCCNC(=O)CC[C@H](NC(=O)CCCCCCCCCCCCCCCCC(=O)O)C(=O)O)C(=O)N[C@@H](CC(=O)O)C(=O)N[C@@H](Cc1ccccc1)C(N)=O) [N-α-#-[Leu15] Gastrin-17 (15-17)]", -1),
    ("{C18 diacid-γGlu-AEEA-AEEA}-EEEEAYGWLDF-NH2 (ends and bridges not checked) [N-α-#-[Leu15] Gastrin-17 (7-17)]", 1),
    ("QGPWLEEEEEAYGWLDF-NH2 (ends and bridges not checked) [[Leu15] Gastrin-17]", 1),
    ("{C18 diacid-γGlu-AEEA-AEEA}-WLDF-NH2 (SMILES CC(C)C[C@H](NC(=O)[C@H](Cc1c[nH]c2ccccc12)NC(=O)COCCOCCNC(=O)COCCOCCNC(=O)CC[C@H](NC(=O)CCCCCCCCCCCCCCCCC(=O)O)C(=O)O)C(=O)N[C@@H](CC(=O)O)C(=O)N[C@@H](Cc1ccccc1)C(N)=O) [N-α-#-[Leu15] Gastrin-17 (14-17)]", -1),
    ("{C18 diacid-γGlu-AEEA-AEEA}-Asp-Phe-NH2 (SMILES NC(=O)[C@H](Cc1ccccc1)NC(=O)[C@H](CC(=O)O)NC(=O)COCCOCCNC(=O)COCCOCCNC(=O)CC[C@H](NC(=O)CCCCCCCCCCCCCCCCC(=O)O)C(=O)O) [N-α-#-Gastrin-17 (16-17)]", -1),
]
